# System: MS2 coat protein
# ASSAY: apparent KD of MS2 coat protein; designed switch direction (-1 OFF switch, 1 ON switch): -1; higher = weaker reporter binding
# PARTICULARS: input ligand: none
Would you mind labelling by apparent KD of MS2 coat protein? At or over 60 nM is yes (1), under is no (0).

- SEQUENCE_CODE: "AAUGAUUGACGAGGAUAUUGUGGUAAAACACGACGAGAAGGCGUAUGUCACAUGAGGAUCACCCAUGUGAGCUUUGUGGAUAUA [Ex NG1 #71] (Eterna round: R96, puzzle: Exclusion NG 1)"
  ASSIGNED_CATEGORY: "no (0)"
- SEQUENCE_CODE: "AGCUGUGGCCGAGGAUAUCUGAUAGUCCCAACCGAAAUAUAAUCGGACAUGAGGAUCACCCAUGUAGAGAAGGCGGUCUCAGCA [Eli eng2 - 070] (Eterna round: R96, puzzle: Exclusion NG 2)"
  ASSIGNED_CATEGORY: "yes (1)"
- SEQUENCE_CODE: "GGUCCUGAUGAUUUCCUAUACAUGAGGAUCACCCAUGUAUGUUUAUUUUGUUUUUAGCUUUUUGGUCGUCAAUAAUA [Mod-Hoo-honey-3] (Eterna round: R97, puzzle: Sensor, turn-off variant 1)"
  ASSIGNED_CATEGORY: "no (0)"
- SEQUENCE_CODE: "CGGUGCUUCUGGAAACAUGAGGAUCACCCAUGUUGAGUUAGCGAGGAUAUCGGUAACACUUGUUAUGAGAAGGCGCGAACCAGA [Ex NG3 #35] (Eterna round: R96, puzzle: Exclusion NG 3)"
  ASSIGNED_CATEGORY: "no (0)"
- SEQUENCE_CODE: "UAUAUGUCAGGAUAUCGAUUGGAACAGAAUUUAACAAUGGUCGAGAAGGGACAUGAGGAUCACCCAUGUUCAAC [JR_Ex4_Sub020] (Eterna round: R97, puzzle: Exclusion 4)"
  ASSIGNED_CATEGORY: "no (0)"
- SEQUENCE_CODE: "GUAUGGUGAGGAUAUCGCCCUGCCUGCUCAAAGGCGAUGGACGAGAAGGCACAUGAGGAUCACCCAUGUCUGGG [Eternabot (L2) Solution 65] (Eterna round: R97, puzzle: Exclusion 4)"
  ASSIGNED_CATEGORY: "yes (1)"
- SEQUENCE_CODE: "CUCUUGUGAGGAUAUCGAAGAAAAGAAAAGAAAGAAAAGAACGAGAAGGCACAUGAGGAUCACCCAUGUAAGAA [EteRNA is fun!] (Eterna round: R96, puzzle: Exclusion 4)"
  ASSIGNED_CATEGORY: "no (0)"
- SEQUENCE_CODE: "UGUUGUUGCGCAGGAUAUUGCCAACAGGCAGUAGGAUAUCCGAAAGGAGAAGGACCGCCAACAGGCGAGAAGGGCGGGACAACU [pwkr exNG2 2xF7 2xFMN.12] (Eterna round: R96, puzzle: Exclusion NG 2)"
  ASSIGNED_CATEGORY: "yes (1)"
- SEQUENCE_CODE: "GAAUUAAUUAAUUAAUAAUACAUGAGGAUCACCCAUGUAGAUCCUACAUACAAGCUAAGUAGCUCGUCUUAUAAUUA [Stov1/2-A2] (Eterna round: R97, puzzle: Sensor, turn-off variant 1)"
  ASSIGNED_CATEGORY: "yes (1)"
